Would you kindly list pKi for each of these molecules?
- target-system: GCN2 kinase (Homo sapiens)
- method: GCN2 enzyme inhibition assay (Transcreener ADP2 fluorescence polarization)
- Format: biochemical
- reported-conditions: Enzyme activity for compounds of Formula IV; Ki(app), 280 μM ATP, 25° C.
pKi: −log10 of the molar value.

{"molecule": "CN([C@H]1CCN(c2ccnc(-c3cnc4cnc(C(F)F)cn34)n2)C1)S(C)(=O)=O", "observed-value": "6.00 to 7.00"}
{"molecule": "CC1CN(c2ccnc(-c3cnc4cnc(C(F)(F)F)cn34)n2)CC(c2cn[nH]c2)O1 (single isomer, unassigned) [IV-16]", "observed-value": "7.00 to 8.00"}
{"molecule": "CC1C(C(N)=O)CCN1c1ccnc(-c2cnc3cnc(C(F)(F)F)cn23)n1 (single isomer, unassigned) [IV-614]", "observed-value": "6.00 to 7.00"}
{"molecule": "Cc1cc(N2CCN(C(N)=O)CC2)nc(-c2cnc3cnc(C(N)=O)cn23)n1", "observed-value": "7.00 to 8.00"}

# per-item lookup of pKi; items listed below
1. Cc1n[nH]cc1C1CCN(c2ccnc(-c3cnc4cnc(C(F)(F)F)cn34)n2)C1 (centres unmarked)
2. O=C(N[C@H]1CCCN(c2ccnc(-c3cnc4cnc(C(F)(F)F)cn34)n2)C1)c1cccnc1F
3. O=c1nc(C2CCCN(c3ccnc(-c4cnc5cnc(C(F)(F)F)cn45)n3)C2)[nH][nH]1 (centres unmarked)
4. NCCC1CN(c2ccnc(-c3cnc4cnc(C(F)(F)F)cn34)n2)CCO1 (centres unmarked)

Marked response:
7.00 to 8.00
< 6.00
6.00 to 7.00
6.00 to 7.00

---

- target-system: GCN2 kinase (Homo sapiens, UniProt Q9P2K8)
- Sequence (Q9P2K8 whole entry): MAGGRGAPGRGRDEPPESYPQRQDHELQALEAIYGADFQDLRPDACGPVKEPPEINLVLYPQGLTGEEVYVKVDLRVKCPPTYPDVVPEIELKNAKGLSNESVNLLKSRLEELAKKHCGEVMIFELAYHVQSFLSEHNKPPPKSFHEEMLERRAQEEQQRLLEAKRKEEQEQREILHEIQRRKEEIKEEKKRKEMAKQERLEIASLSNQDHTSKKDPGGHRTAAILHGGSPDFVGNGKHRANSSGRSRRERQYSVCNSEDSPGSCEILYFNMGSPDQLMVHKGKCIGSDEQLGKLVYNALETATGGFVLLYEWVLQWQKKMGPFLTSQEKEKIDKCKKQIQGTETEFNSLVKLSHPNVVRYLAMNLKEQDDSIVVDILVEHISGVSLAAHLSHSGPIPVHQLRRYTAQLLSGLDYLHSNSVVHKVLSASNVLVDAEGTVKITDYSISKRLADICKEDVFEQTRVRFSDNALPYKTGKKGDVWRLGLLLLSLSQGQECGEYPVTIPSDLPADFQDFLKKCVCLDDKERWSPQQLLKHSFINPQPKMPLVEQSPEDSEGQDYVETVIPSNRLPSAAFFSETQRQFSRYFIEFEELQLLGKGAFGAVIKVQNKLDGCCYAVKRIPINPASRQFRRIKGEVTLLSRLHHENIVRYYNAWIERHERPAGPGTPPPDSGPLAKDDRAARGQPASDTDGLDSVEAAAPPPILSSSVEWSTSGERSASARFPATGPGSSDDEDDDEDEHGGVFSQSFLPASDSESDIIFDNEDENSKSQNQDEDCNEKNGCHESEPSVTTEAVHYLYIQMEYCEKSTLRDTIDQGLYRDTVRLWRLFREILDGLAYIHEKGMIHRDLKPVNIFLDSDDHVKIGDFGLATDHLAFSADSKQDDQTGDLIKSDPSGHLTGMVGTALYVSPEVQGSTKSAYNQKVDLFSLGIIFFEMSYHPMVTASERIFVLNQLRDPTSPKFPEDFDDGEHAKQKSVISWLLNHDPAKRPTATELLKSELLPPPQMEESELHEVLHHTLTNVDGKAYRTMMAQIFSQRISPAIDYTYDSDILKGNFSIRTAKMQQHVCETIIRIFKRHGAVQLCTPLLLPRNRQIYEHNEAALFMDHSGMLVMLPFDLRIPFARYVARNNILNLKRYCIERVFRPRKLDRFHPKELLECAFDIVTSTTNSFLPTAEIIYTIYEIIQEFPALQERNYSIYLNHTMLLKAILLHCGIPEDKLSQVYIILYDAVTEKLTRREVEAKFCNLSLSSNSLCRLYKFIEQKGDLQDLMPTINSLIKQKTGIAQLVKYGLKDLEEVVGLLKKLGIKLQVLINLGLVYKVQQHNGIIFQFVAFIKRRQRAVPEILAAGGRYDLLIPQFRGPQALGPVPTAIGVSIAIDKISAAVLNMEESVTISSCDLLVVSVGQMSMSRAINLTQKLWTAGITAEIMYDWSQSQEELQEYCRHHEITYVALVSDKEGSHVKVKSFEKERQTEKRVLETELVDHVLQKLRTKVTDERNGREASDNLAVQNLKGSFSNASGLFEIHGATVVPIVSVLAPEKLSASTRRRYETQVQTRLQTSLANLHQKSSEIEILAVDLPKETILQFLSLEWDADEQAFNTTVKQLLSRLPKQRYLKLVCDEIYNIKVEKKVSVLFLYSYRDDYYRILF
- method: GCN2 enzyme inhibition assay (Transcreener ADP2 fluorescence polarization)
- Format: biochemical
- reported-conditions: Enzyme activity for compounds of Formula IV; Ki(app), 280 μM ATP, 25° C.
metric-name: Ki

Answered cases to consult:
{"compound": "CC(C)c1nc(C2CCCN(c3ccnc(-c4cnc5cnc(Br)cn45)n3)C2)c[nH]1 (stereo not shown)", "target-system": "GCN2 kinase (Homo sapiens, UniProt Q9P2K8)", "observed-value": "10 to 100 nM"}
{"compound": "FC(F)(F)c1cn2c(-c3nccc(N4CCCC(c5ncc[nH]5)C4)n3)cnc2cn1 (stereo not shown)", "target-system": "GCN2 kinase (Homo sapiens, UniProt Q9P2K8)", "observed-value": "10 to 100 nM"}
{"compound": "CC1CCN(c2ccnc(-c3cnc4cnc(C(F)(F)F)cn34)n2)CC1n1ccnc1 (stereo not shown) [IV-319]", "target-system": "GCN2 kinase (Homo sapiens, UniProt Q9P2K8)", "observed-value": "100 to 1000 nM"}

# evaluate next
Exam item: Fill in reported Ki for this entry: "NC(=O)c1ccc(F)c(-c2ccnc(-c3cnc4cnc(C(F)F)cn34)n2)c1"
Marked response: 100 to 1000 nM

---

- target-system: GCN2 kinase (Homo sapiens, UniProt Q9P2K8)
- method: GCN2 enzyme inhibition assay (Transcreener ADP2 fluorescence polarization)
- Type: biochemical
- reported-conditions: compounds of Formula II; 280 μM ATP, 4 nM GCN2 kinase
pKi: −log10 of the molar value.
Would you kindly list pKi for each of these compounds?

{"compound": "Cc1cnc(-c2cnc3ccc(C(F)F)nn23)cc1N1CCCC(CNS(C)(=O)=O)C1 (stereo not drawn)", "pKi": "> 8.00"}

# per-item lookup of pKi; items listed below
1. O=C(O)[C@H]1CCCN(c2cc(-c3cnc4ccc(C(F)(F)F)nn34)ncn2)C1
2. CC1CC(CNS(C)(=O)=O)CN(c2cc(-c3cnc4ccc(C(F)F)nn34)ncn2)C1 (stereo not drawn) [II-398]
3. CC1CN(c2cc(-c3cnc4ccc(C(F)F)nn34)ncn2)CC(CNS(C)(=O)=O)O1 (stereo not drawn) [II-32]
4. CC1CN(c2cc(-c3cnc4ccc(C(F)F)nn34)ncn2)CC(CNS(C)(=O)=O)O1 (stereo not drawn) [II-31]
5. CC(=O)NCC1CCCN(c2cc(-c3cnc4ccc(C(F)F)nn34)ncn2)C1 (stereo not drawn)
6. CS(=O)(=O)NCC1CCCN(c2cc(-c3cnc4ccc(C(F)F)nn34)cc(C#N)n2)C1 (stereo not drawn)

Marked response:
6.00 to 8.00
6.00 to 8.00
> 8.00
> 8.00
6.00 to 8.00
6.00 to 8.00

# per-item lookup of pKi; items listed below
1. FC(F)(F)c1ccc2ncc(-c3ccnc(N4CCCC(c5ncc[nH]5)C4)c3)n2n1 (stereo not drawn)
2. C[C@@H]1C[C@H](CS(C)(=N)=O)[C@H](C)N(c2cc(-c3cnc4ccc(C(F)F)nn34)ncn2)C1 (stereo partly drawn) [II-607]
3. CN1C(=O)CN(c2cc(-c3cnc4ccc(C(F)F)nn34)ncn2)C[C@H]1CNS(C)(=O)=O
4. CC(=O)N1CCN(c2cc(-c3cnc4ccc(C(F)F)nn34)ncn2)CC1
5. CC1CC(P(C)(C)=O)CN(c2cc(-c3cnc4ccc(C(F)(F)F)nn34)ncn2)C1 (stereo not drawn) [II-713]
6. CC1CC(N=S(C)(C)=O)CN(c2cc(-c3cnc4ccc(C(F)F)nn34)c(F)cn2)C1 (single isomer, unassigned) [II-722]
7. CC1CC(N=S(C)(=O)C2CC2)CN(c2cc(-c3cnc4ccc(C(F)F)nn34)ncn2)C1 (single isomer, unassigned) [II-644]

Marked response:
6.00 to 8.00
> 8.00
< 6.00
6.00 to 8.00
6.00 to 8.00
6.00 to 8.00
6.00 to 8.00

# per-item lookup of pKi; items listed below
1. OC1CCCC2C1NCCN2c1cc(-c2cnc3ccc(C(F)F)nn23)ncn1 (stereo not drawn)
2. CC1CN(c2cc(-c3cnc4ccc(C(F)F)nn34)ncn2)CC(CNS(C)(=O)=O)C1(F)F (stereo not drawn) [II-35]

Marked response:
6.00 to 8.00
6.00 to 8.00
